Attribution: patent US20190367619A1

- assayedSystem: T1, cynomolgus galectin-10-His, WGS isoform (cynomolgus)
- T1 construct: also called cynoGal10-WGS; not shown: His tag
- T1 chain: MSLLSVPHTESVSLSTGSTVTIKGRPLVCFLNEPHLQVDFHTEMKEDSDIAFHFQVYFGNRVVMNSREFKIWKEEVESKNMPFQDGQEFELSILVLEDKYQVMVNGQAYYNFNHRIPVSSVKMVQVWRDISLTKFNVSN
- procedureSummary: SPR Biacore T3000, scFv-human Fc captured
propertyMeasured: koff
Phrase the answer as number then unit, nothing more needed.

Consider the reported koff for these binders:
- binder: "10D02 scFv-human Fc (Fc fusion, also called 010D02; not shown: CH2-CH3 constant domains of human IgG1 (pUPEX50 scFv-Fc fusion vector)) scFv: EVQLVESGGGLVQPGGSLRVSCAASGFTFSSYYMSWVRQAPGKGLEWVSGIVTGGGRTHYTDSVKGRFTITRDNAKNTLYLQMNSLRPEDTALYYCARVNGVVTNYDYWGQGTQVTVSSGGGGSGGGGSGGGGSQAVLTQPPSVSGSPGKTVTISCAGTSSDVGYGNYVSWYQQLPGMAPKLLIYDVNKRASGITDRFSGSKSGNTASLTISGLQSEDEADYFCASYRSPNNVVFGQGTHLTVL"
  propertyMeasured: "koff"
  valueReported: "0.00122 s⁻¹"
- binder: "11F02 scFv-human Fc (Fc fusion, also called 011F02; not shown: CH2-CH3 constant domains of human IgG1 (pUPEX50 scFv-Fc fusion vector)) scFv: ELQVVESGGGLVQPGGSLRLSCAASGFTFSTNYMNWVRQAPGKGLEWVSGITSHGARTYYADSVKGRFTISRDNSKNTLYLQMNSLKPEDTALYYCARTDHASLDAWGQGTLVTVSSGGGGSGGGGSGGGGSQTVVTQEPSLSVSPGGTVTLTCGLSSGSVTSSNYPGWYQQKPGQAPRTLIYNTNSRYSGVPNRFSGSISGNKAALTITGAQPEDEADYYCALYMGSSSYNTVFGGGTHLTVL"
  propertyMeasured: "koff"
  valueReported: "0.00185 s⁻¹"
- binder: "7B07 scFv-human Fc (Fc fusion, also called 007B07; not shown: CH2-CH3 constant domains of human IgG1 (pUPEX50 scFv-Fc fusion vector)) scFv: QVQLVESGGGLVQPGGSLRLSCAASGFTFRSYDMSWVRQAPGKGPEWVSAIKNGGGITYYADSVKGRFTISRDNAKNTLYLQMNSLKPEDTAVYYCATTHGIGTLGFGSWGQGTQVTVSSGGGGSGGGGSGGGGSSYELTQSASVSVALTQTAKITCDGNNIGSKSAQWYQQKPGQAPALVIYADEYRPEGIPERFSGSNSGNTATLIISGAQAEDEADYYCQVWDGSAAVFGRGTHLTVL"
  propertyMeasured: "koff"
  valueReported: "0.0766 s⁻¹"
- binder: "8H11 scFv-human Fc (Fc fusion, also called 008H11; not shown: CH2-CH3 constant domains of human IgG1 (pUPEX50 scFv-Fc fusion vector)) scFv: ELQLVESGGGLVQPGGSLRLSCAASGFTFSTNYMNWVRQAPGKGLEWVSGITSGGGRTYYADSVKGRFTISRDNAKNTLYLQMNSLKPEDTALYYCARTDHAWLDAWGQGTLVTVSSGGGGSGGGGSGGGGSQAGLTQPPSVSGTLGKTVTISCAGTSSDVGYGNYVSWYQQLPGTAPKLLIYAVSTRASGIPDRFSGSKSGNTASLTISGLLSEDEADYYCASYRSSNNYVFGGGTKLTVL"
  propertyMeasured: "koff"
  valueReported: "0.00161 s⁻¹"

For 10B02 scFv-human Fc (Fc fusion, also called 010B02; not shown: CH2-CH3 constant domains of human IgG1 (pUPEX50 scFv-Fc fusion vector)) scFv: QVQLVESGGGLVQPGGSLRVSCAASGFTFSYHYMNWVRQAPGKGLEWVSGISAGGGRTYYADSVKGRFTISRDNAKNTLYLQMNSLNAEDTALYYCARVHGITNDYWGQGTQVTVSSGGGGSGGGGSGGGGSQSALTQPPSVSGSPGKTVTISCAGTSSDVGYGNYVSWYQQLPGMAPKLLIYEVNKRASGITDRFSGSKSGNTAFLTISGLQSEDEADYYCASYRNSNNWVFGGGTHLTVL , what is its reported koff? 0.0008 s⁻¹
